- system_under_test: Aurora kinase B (Homo sapiens, UniProt Q96GD4)
- Sequence (Q96GD4 whole entry): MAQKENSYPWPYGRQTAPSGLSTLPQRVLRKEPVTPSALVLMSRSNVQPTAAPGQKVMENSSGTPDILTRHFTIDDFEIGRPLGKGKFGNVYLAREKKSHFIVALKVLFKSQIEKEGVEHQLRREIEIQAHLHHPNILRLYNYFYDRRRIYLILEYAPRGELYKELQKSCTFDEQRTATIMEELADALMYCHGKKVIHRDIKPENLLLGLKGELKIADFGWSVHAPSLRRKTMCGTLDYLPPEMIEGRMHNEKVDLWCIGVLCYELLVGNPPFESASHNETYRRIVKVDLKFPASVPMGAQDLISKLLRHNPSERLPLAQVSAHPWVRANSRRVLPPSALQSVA
- test: Inhibition of aurora B kinase in human HCT116 cells assessed as inhibition of histone H3 phosphorylation incubated for 1 hr by Hoechst 33342 staining based microscopic analysis
measured_parameter: pEC50
pEC50 here is simply -log10 of the concentration when that concentration is written in mol/L.

Completed entries (count: 4):
{"molecule": "Cc1cn2c(-c3cnn(CC(=O)Nc4cc[n+]([O-])cc4)c3)cnc2c(Nc2cc(CN3CCCC(C)C3)ns2)n1 (configuration not stated)", "system_under_test": "Aurora kinase B (Homo sapiens, UniProt Q96GD4)", "pEC50": 6.40}
{"molecule": "Cc1cn2c(-c3cnn(CC(=O)Nc4ccccc4)c3)cnc2c(Nc2cc(CN3CCCC(C)C3)ns2)n1 (configuration not stated)", "system_under_test": "Aurora kinase B (Homo sapiens, UniProt Q96GD4)", "pEC50": 6.49}
{"molecule": "Cc1cn2c(-c3cnn(CC(=O)Nc4ccc(F)cc4)c3)cnc2c(Nc2cc(CN3CCCCC3)ns2)n1", "system_under_test": "Aurora kinase B (Homo sapiens, UniProt Q96GD4)", "pEC50": 6.39}
{"molecule": "COc1cccc(CNC(=O)Cn2cc(-c3cnc4c(Nc5cc(CN6CCCC(C)C6)ns5)nc(C)cn34)cn2)c1 (configuration not stated)", "system_under_test": "Aurora kinase B (Homo sapiens, UniProt Q96GD4)", "pEC50": 6.35}

Param readout= pEC50; system= Aurora kinase B (Homo sapiens, UniProt Q96GD4); entry= Cc1cn2c(-c3cnn(CC(=O)NCc4ccccc4)c3)cnc2c(Nc2cc(CN3CCCC(C)C3)ns2)n1 (configuration not stated) ; returns value.
6.89

Moving on to the next molecule: Cc1cn2c(-c3cnn(CC(=O)Nc4ccccc4F)c3)cnc2c(Nc2cc(CN3CCCCC3)ns2)n1
6.41

Moving on to the next molecule: Cc1cn2c(-c3cnn(CC(=O)Nc4cccnn4)c3)cnc2c(Nc2cc(CN3CCCC(C)C3)ns2)n1 (configuration not stated)
6.02

Moving on to the next molecule: Cc1cn2c(-c3cnn(Cc4nc5ccccc5[nH]4)c3)cnc2c(Nc2cc(CN3CCCC(C)C3)ns2)n1 (configuration not stated)
6.27

Moving on to the next molecule: Cc1cn2c(-c3cnn(CC(=O)Nc4cc(F)cc(F)c4)c3)cnc2c(Nc2cc(CN3CCCCC3)ns2)n1
5.62

====

Consider the following pIC50 values measured on Serine/threonine-protein kinase Chk1 (Homo sapiens, UniProt O14757).
Sequence (O14757 whole entry): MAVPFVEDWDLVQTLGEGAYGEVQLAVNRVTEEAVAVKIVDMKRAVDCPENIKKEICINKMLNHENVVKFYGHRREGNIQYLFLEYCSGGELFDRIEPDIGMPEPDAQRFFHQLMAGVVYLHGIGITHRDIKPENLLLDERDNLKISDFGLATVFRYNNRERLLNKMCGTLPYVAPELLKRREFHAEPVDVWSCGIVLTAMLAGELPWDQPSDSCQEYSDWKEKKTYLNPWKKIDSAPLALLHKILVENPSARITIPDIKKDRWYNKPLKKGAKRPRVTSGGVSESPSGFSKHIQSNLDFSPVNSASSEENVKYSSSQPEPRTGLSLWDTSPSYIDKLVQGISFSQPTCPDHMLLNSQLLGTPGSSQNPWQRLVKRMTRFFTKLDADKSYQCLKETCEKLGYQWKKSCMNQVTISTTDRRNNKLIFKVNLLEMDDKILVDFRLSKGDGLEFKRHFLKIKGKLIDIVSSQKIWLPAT
pIC50 here is simply -log10 of the concentration when that concentration is written in mol/L.

Completed entries (count: 3):
{"molecule": "Cc1cn2c(-c3cnn(CC(=O)Nc4cccc(F)c4F)c3)cnc2c(Nc2cc(CN3CCCCC3)ns2)n1", "system_under_test": "Serine/threonine-protein kinase Chk1 (Homo sapiens, UniProt O14757)", "pIC50": 7.70}
{"molecule": "Cc1cn2c(-c3cn[nH]c3)cnc2c(Nc2cc(CN3CCCCC3)ns2)n1", "system_under_test": "Serine/threonine-protein kinase Chk1 (Homo sapiens, UniProt O14757)", "pIC50": 7.70}
{"molecule": "Cc1cn2c(-c3cnn(CC(=O)Nc4ccncc4F)c3)cnc2c(Nc2cc(CN3CCCC(C)C3)ns2)n1 (centres undefined)", "system_under_test": "Serine/threonine-protein kinase Chk1 (Homo sapiens, UniProt O14757)", "pIC50": 6.52}

Now for the molecule whose pIC50 we want.
pIC50 for Cc1cn2c(-c3cnn(CC(=O)Nc4ccncc4)c3)cnc2c(Nc2cc(CN3CCCC(C)C3)ns2)n1 (centres undefined) ?
7.00

====

- system_under_test: Aurora kinase B (Homo sapiens)
- test: Inhibition of aurora B kinase in human HCT116 cells assessed as inhibition of histone H3 phosphorylation incubated for 1 hr by Hoechst 33342 staining based microscopic analysis
measured_parameter: log10 of EC50 (log10 of the value in nM)
A difference of one corresponds to tenfold EC50; all values are log10 with EC50 in nM.

{"molecule": "Cc1cn2c(-c3cnn(CC(=O)Nc4cccc(F)c4)c3)cnc2c(Nc2cc(CN3CCCCC3)ns2)n1", "system_under_test": "Aurora kinase B (Homo sapiens)", "measured_parameter": "log10 of EC50", "value_measured": 2.95}
{"molecule": "Cc1cn2c(-c3cnn(CC(=O)NCc4ccccc4F)c3)cnc2c(Nc2cc(CN3CCCCC3)ns2)n1", "system_under_test": "Aurora kinase B (Homo sapiens)", "measured_parameter": "log10 of EC50", "value_measured": 2.67}
{"molecule": "Cc1cn2c(-c3cnn(Cc4nc(-c5ccccc5)c[nH]4)c3)cnc2c(Nc2cc(CN3CCCCC3)ns2)n1", "system_under_test": "Aurora kinase B (Homo sapiens)", "measured_parameter": "log10 of EC50", "value_measured": 2.95}
{"molecule": "Cc1cn2c(-c3cnn(CC(=O)NCc4ccc(F)cc4)c3)cnc2c(Nc2cc(CN3CCCCC3)ns2)n1", "system_under_test": "Aurora kinase B (Homo sapiens)", "measured_parameter": "log10 of EC50", "value_measured": 2.62}
{"molecule": "Cc1cn2c(-c3cnn(CC(=O)Nc4ccccn4)c3)cnc2c(Nc2cc(CN3CCCC(C)C3)ns2)n1 (stereo not drawn)", "system_under_test": "Aurora kinase B (Homo sapiens)", "measured_parameter": "log10 of EC50", "value_measured": 2.45}

Now for the molecule whose log10 of EC50 we want.
log10 of EC50 for Cc1cn2c(-c3cnn(CC(=O)Nc4ccncc4)c3)cnc2c(Nc2cc(CN3CCCC(C)C3)ns2)n1 (stereo not drawn) ?
1.92

====

- system_under_test: UniProt P35968
- Sequence (P35968 whole entry): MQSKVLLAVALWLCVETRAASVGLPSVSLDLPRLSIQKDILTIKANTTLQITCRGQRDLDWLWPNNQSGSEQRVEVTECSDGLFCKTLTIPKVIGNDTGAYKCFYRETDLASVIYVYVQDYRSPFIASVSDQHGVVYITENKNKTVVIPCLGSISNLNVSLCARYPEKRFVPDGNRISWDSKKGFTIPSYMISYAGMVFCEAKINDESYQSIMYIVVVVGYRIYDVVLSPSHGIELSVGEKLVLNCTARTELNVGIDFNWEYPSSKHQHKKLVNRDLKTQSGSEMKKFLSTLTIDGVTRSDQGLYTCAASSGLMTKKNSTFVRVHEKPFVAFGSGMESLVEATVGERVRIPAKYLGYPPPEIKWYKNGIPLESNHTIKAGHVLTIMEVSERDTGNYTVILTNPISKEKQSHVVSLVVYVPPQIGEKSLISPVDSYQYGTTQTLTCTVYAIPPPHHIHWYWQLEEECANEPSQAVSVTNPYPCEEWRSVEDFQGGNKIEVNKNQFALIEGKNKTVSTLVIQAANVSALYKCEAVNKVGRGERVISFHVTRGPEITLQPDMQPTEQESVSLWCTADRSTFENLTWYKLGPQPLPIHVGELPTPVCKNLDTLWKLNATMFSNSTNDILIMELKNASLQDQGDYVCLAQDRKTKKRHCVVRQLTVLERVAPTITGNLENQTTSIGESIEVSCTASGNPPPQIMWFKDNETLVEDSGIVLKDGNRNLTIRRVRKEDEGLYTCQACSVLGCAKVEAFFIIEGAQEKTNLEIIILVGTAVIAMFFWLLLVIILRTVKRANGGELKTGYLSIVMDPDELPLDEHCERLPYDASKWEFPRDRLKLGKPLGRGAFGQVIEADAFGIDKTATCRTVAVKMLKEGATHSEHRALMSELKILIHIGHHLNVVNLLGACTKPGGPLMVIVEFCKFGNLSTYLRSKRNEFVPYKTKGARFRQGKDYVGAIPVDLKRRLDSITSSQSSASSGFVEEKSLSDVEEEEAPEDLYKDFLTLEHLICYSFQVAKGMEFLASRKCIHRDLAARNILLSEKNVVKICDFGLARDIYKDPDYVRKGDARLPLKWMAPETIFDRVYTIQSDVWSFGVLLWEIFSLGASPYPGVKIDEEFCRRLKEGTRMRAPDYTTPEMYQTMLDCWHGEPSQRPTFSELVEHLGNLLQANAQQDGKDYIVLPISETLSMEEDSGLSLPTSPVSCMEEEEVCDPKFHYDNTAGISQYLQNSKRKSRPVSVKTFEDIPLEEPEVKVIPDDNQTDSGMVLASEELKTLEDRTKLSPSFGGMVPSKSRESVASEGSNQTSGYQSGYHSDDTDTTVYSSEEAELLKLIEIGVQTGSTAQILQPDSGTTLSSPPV
Each entry below carries its recorded pIC50.
pIC50 here is simply -log10 of the concentration when that concentration is written in mol/L.

pIC50 for Cc1cn2c(-c3cnn(CC(=O)Nc4ccncc4F)c3)cnc2c(Nc2cc(CN3CCCC(C)C3)ns2)n1 (stereo not given) ?
6.60

Moving on to the next molecule: Cc1cn2c(-c3cnn(CC(=O)NCc4cccs4)c3)cnc2c(Nc2cc(CN3CCCC(C)C3)ns2)n1 (stereo not given)
6.63

====

- system_under_test: Aurora kinase A (Homo sapiens, UniProt O14965)
- Sequence (O14965 whole entry): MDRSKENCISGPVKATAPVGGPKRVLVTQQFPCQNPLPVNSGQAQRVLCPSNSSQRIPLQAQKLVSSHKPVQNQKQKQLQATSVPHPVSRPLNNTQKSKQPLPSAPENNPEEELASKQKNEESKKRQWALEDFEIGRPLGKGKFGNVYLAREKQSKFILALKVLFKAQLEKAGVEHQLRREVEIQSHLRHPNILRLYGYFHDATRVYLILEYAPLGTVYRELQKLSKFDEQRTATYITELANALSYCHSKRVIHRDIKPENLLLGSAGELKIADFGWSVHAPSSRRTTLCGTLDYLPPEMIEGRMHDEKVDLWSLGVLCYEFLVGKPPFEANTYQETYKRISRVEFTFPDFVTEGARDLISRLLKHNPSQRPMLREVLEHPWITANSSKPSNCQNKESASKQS
measured_parameter: pIC50
pIC50 here is simply -log10 of the concentration when that concentration is written in mol/L.

pIC50 for Cc1cn2c(-c3cnn(CC(=O)NCc4cccc(N(C)C)c4)c3)cnc2c(Nc2cc(CN3CCCC(C)C3)ns2)n1 (centres undefined) ?
6.07

Moving on to the next molecule: Cc1cn2c(-c3cnn(CC(=O)Nc4cccc(F)c4)c3)cnc2c(Nc2cc(CN3CCCCC3)ns2)n1
6.47

Moving on to the next molecule: Cc1cn2c(-c3cnn(CC(=O)NCc4cccc(C(F)(F)F)c4)c3)cnc2c(Nc2cc(CN3CCCC(C)C3)ns2)n1 (centres undefined)
6.38

Moving on to the next molecule: Cc1cn2c(-c3cnn(CC(=O)NCc4cccs4)c3)cnc2c(Nc2cc(CN3CCCC(C)C3)ns2)n1 (centres undefined)
7.57

====

- system_under_test: Aurora kinase A (Homo sapiens, UniProt O14965)
Binarize IC50 at 200 nM; below is Met, at or above is Not met.

{"compound": "Cc1cn2c(-c3cnn(CC(=O)NCCC(C)C)c3)cnc2c(Nc2cc(CN3CCCCC3)ns2)n1", "category_label": "Not met"}
{"compound": "Cc1cn2c(-c3cnn(Cc4noc(-c5ccccc5)n4)c3)cnc2c(Nc2cc(CN3CCCCC3)ns2)n1", "category_label": "Met"}
{"compound": "Cc1cn2c(-c3cnn(CC(=O)NCc4cccc(F)c4)c3)cnc2c(Nc2cc(CN3CCCCC3)ns2)n1", "category_label": "Met"}
{"compound": "Cc1cn2c(-c3cnn(CC(=O)NCc4ccc(C(F)(F)F)cc4)c3)cnc2c(Nc2cc(CN3CCCC(C)C3)ns2)n1 (stereo not drawn)", "category_label": "Not met"}
{"compound": "Cc1cn2c(-c3cnn(CC(=O)NCc4cc(F)cc(F)c4)c3)cnc2c(Nc2cc(CN3CCCCC3)ns2)n1", "category_label": "Met"}

IC50 strictly < 200 nM for this compound? Cc1cn2c(-c3cnn(CC(=O)NCc4cccnc4)c3)cnc2c(Nc2cc(CN3CCCC(C)C3)ns2)n1 (stereo not drawn)
Not met

Moving on to the next compound: Cc1cn2c(-c3cnn(CC(=O)NCc4cccc(F)c4F)c3)cnc2c(Nc2cc(CN3CCCCC3)ns2)n1
Met

Moving on to the next compound: Cc1cn2c(-c3cnn(Cc4nc5ccccc5[nH]4)c3)cnc2c(Nc2cc(CN3CCCC(C)C3)ns2)n1 (stereo not drawn)
Met

Moving on to the next compound: Cc1cn2c(-c3cnn(CC(=O)Nc4cc[n+]([O-])cc4)c3)cnc2c(Nc2cc(CN3CCCC(C)C3)ns2)n1 (stereo not drawn)
Met

Moving on to the next compound: COc1ccc(CNC(=O)Cn2cc(-c3cnc4c(Nc5cc(CN6CCCC(C)C6)ns5)nc(C)cn34)cn2)cc1 (stereo not drawn)
Not met

Moving on to the next compound: CNC(=O)Cn1cc(-c2cnc3c(Nc4cc(CN5CCCCC5)ns4)nc(C)cn23)cn1
Not met

Moving on to the next compound: Cc1cn2c(-c3cnn(CC(=O)Nc4ccncc4F)c3)cnc2c(Nc2cc(CN3CCCC(C)C3)ns2)n1 (stereo not drawn)
Met
